assay: Stability of cannabinoid and Vitamin E components of Beverage 1 (AB White) stored at 8° C. and 21-25° C., LCMSMS over 570 days; format: physicochemical; details: beverage stored at 8° C., day 3
Classes are defined on Stability in AB White, 8° C. (content by LCMSMS) with ranges bin 0 (below 0.9 µg/mL), bin 1 (0.9 µg/mL to below 4 µg/mL), bin 2 (4 µg/mL or more)

[in] Any idea which band CCCc1cc(O)c2c(c1)OC(C)(C)[C@@H]1CCC(C)=C[C@@H]21 [THCV, delta-9-tetrahydrocannabivarin] is in?
[out] bin 1

[in] Any idea which band CCCCCc1cc(O)c2c(c1)OC(C)(C)[C@@H]1CCC(C)=C[C@@H]21 [D9 THC, delta-9-tetrahydrocannabinol, reference compound] is in?
[out] bin 2

[in] Any idea which band `CCCCCc1cc(O)c(C/C=C(\C)CCC=C(C)C)c(O)c1` is in?
[out] bin 2

[in] Any idea which band CCCCCc1cc(O)c2c(c1)OC1(C)CCC3C1C2C3(C)C (stereo not shown) is in?
[out] bin 0

[in] Any idea which band `CCCCCc1cc(O)c2c(c1)OC(C)(C)c1ccc(C)cc1-2` is in?
[out] bin 1

[in] Any idea which band CCCCCc1cc2c(c(O)c1C(=O)O)[C@@H]1C=C(C)CC[C@H]1C(C)(C)O2 [D9 THCA, delta-9-tetrahydrocannabinolic acid] is in?
[out] bin 1

[in] Any idea which band `C=C(C)[C@@H]1CCC(C)=C[C@H]1c1c(O)cc(CCC)cc1O` is in?
[out] bin 0

[in] Any idea which band `C=C(C)[C@@H]1CCC(C)=C[C@H]1c1c(O)cc(CCCCC)c(C(=O)O)c1O` is in?
[out] bin 1

[in] Any idea which band CCCCCc1cc(O)c2c(c1)OC(C)(CCC=C(C)C)C=C2 (stereo not shown) is in?
[out] bin 0

[in] Any idea which band C=C(C)[C@@H]1CCC(C)=C[C@H]1c1c(O)cc(CCCCC)cc1O [CBD, cannabidiol, reference compound] is in?
[out] bin 2

---

type: physicochemical; settings: stored at room temperature (21-25° C.), day 150
Cut-off 0.5 mg/g powder on Stability in Powder Concentrate (content by LCMSMS), inclusive. At or above means rule met; below means rule not met.

[in] Does the molecule CCCCCc1cc(O)c(C/C=C(\C)CCC=C(C)C)c(O)c1 [CBG, cannabigerol] have recorded Stability in Powder Concentrate (content by LCMSMS) that is 0.5 mg/g powder or more?
[out] rule met

[in] Does the molecule CCCCCc1cc(O)c2c(c1)OC(C)(C)[C@@H]1CCC(C)=C[C@@H]21 [D9 THC, delta-9-tetrahydrocannabinol, reference compound] have recorded Stability in Powder Concentrate (content by LCMSMS) that is 0.5 mg/g powder or more?
[out] rule met

[in] Does the molecule CC(=O)Oc1c(C)c(C)c2c(c1C)CCC(C)(CCC[C@H](C)CCC[C@H](C)CCCC(C)C)O2 (stereo partly drawn) [α-Tocopheryl acetate] have recorded Stability in Powder Concentrate (content by LCMSMS) that is 0.5 mg/g powder or more?
[out] rule met

[in] Does the molecule C=C(C)[C@@H]1CCC(C)=C[C@H]1c1c(O)cc(CCCCC)c(C(=O)O)c1O [CBDA, cannabidiolic acid] have recorded Stability in Powder Concentrate (content by LCMSMS) that is 0.5 mg/g powder or more?
[out] rule not met

[in] Does the molecule CCCc1cc(O)c2c(c1)OC(C)(C)[C@@H]1CCC(C)=C[C@@H]21 [THCV, delta-9-tetrahydrocannabivarin] have recorded Stability in Powder Concentrate (content by LCMSMS) that is 0.5 mg/g powder or more?
[out] rule met

[in] Does the molecule C=C(C)[C@@H]1CCC(C)=C[C@H]1c1c(O)cc(CCC)cc1O [CBDV, cannabidivarin] have recorded Stability in Powder Concentrate (content by LCMSMS) that is 0.5 mg/g powder or more?
[out] rule not met

---

Hi there, I'd appreciate the recorded Stability of Cannabinoids in AB Red for every entry that follows.
assay: Stability of cannabinoid and Vitamin E components of Beverage 2 (AB Red) stored at 8° C. and 21-25° C., LCMSMS over 570 days; conditions: 21-25° C., 19 days
# unit: µg/mL | format: bare number

[in] For the molecule CCCCCc1cc(O)c2c(c1)OC(C)(CCC=C(C)C)C=C2 (stereo not shown) , give its reported Stability of Cannabinoids in AB Red.
[out] 0.29

[in] For the molecule `C=C(C)[C@@H]1CCC(C)=C[C@H]1c1c(O)cc(CCC)cc1O` , give its reported Stability of Cannabinoids in AB Red.
[out] 0.19

[in] For the molecule CCCCCc1cc(O)c2c(c1)OC(C)(C)[C@@H]1CCC(C)=C[C@@H]21 [D9 THC, delta-9-tetrahydrocannabinol, reference compound] , give its reported Stability of Cannabinoids in AB Red.
[out] 12.8

[in] For the molecule `CCCCCc1cc(O)c(C/C=C(\C)CCC=C(C)C)c(O)c1` , give its reported Stability of Cannabinoids in AB Red.
[out] 4.66

---

test: Stability of cannabinoid and Vitamin E components of Beverage 2 (AB Red) stored at 8° C. and 21-25° C., LCMSMS over 570 days; conditions: 8° C., 570 days
Hi there, I'd appreciate the recorded Stability of Cannabinoids in AB Red for every entry that follows.

[in] For the molecule CCCCCc1cc(O)c2c(c1)OC(C)(C)[C@@H]1CCC(C)=C[C@@H]21 [D9 THC, delta-9-tetrahydrocannabinol, reference compound] , give its reported Stability of Cannabinoids in AB Red.
[out] 11.8 µg/mL

[in] For the molecule `C=C(C)[C@@H]1CCC(C)=C[C@H]1c1c(O)cc(CCC)cc1O` , give its reported Stability of Cannabinoids in AB Red.
[out] 0.183 µg/mL

[in] For the molecule CCCc1cc(O)c2c(c1)OC(C)(C)[C@@H]1CCC(C)=C[C@@H]21 [THCV, delta-9-tetrahydrocannabivarin] , give its reported Stability of Cannabinoids in AB Red.
[out] 2.95 µg/mL

[in] For the molecule CCCCCc1cc(O)c2c(c1)OC(C)(CCC=C(C)C)C=C2 (stereo not drawn) , give its reported Stability of Cannabinoids in AB Red.
[out] 0.266 µg/mL

[in] For the molecule CCCCCc1cc(O)c2c(c1)OC1(C)CCC3C1C2C3(C)C (stereo not drawn) , give its reported Stability of Cannabinoids in AB Red.
[out] 0.469 µg/mL

[in] For the molecule CCCCCc1cc2c(c(O)c1C(=O)O)[C@@H]1C=C(C)CC[C@H]1C(C)(C)O2 [D9 THCA, delta-9-tetrahydrocannabinolic acid] , give its reported Stability of Cannabinoids in AB Red.
[out] 1.24 µg/mL

[in] For the molecule `CCCCCc1cc(O)c2c(c1)OC(C)(C)c1ccc(C)cc1-2` , give its reported Stability of Cannabinoids in AB Red.
[out] 2.58 µg/mL

[in] For the molecule `C=C(C)[C@@H]1CCC(C)=C[C@H]1c1c(O)cc(CCCCC)c(C(=O)O)c1O` , give its reported Stability of Cannabinoids in AB Red.
[out] 1.54 µg/mL

[in] For the molecule `CCCCCc1cc(O)c(C/C=C(\C)CCC=C(C)C)c(O)c1` , give its reported Stability of Cannabinoids in AB Red.
[out] 4.37 µg/mL

---

test: Stability of cannabinoid and Vitamin E components of Beverage 2 (AB Red) stored at 8° C. and 21-25° C., LCMSMS over 570 days; conditions: 21-25° C., 300 days
quantity: Stability of Cannabinoids in AB Red (µg/mL)
# unit: µg/mL | format: bare number

[in] For the compound CCCCCc1cc(O)c2c(c1)OC(C)(CCC=C(C)C)C=C2 (stereo not drawn) , give its reported Stability of Cannabinoids in AB Red.
[out] 0.29

[in] For the compound CCCCCc1cc(O)c2c(c1)OC1(C)CCC3C1C2C3(C)C (stereo not drawn) , give its reported Stability of Cannabinoids in AB Red.
[out] 0.50

[in] For the compound CCCCCc1cc(O)c2c(c1)OC(C)(C)[C@@H]1CCC(C)=C[C@@H]21 [D9 THC, delta-9-tetrahydrocannabinol, reference compound] , give its reported Stability of Cannabinoids in AB Red.
[out] 12.4

[in] For the compound `CCCCCc1cc(O)c2c(c1)OC(C)(C)c1ccc(C)cc1-2` , give its reported Stability of Cannabinoids in AB Red.
[out] 2.70

[in] For the compound `C=C(C)[C@@H]1CCC(C)=C[C@H]1c1c(O)cc(CCCCC)c(C(=O)O)c1O` , give its reported Stability of Cannabinoids in AB Red.
[out] 1.58

[in] For the compound `CCCCCc1cc(O)c(C/C=C(\C)CCC=C(C)C)c(O)c1` , give its reported Stability of Cannabinoids in AB Red.
[out] 4.47

[in] For the compound CCCc1cc(O)c2c(c1)OC(C)(C)[C@@H]1CCC(C)=C[C@@H]21 [THCV, delta-9-tetrahydrocannabivarin] , give its reported Stability of Cannabinoids in AB Red.
[out] 3.14

[in] For the compound `C=C(C)[C@@H]1CCC(C)=C[C@H]1c1c(O)cc(CCC)cc1O` , give its reported Stability of Cannabinoids in AB Red.
[out] 0.19

[in] For the compound CCCCCc1cc2c(c(O)c1C(=O)O)[C@@H]1C=C(C)CC[C@H]1C(C)(C)O2 [D9 THCA, delta-9-tetrahydrocannabinolic acid] , give its reported Stability of Cannabinoids in AB Red.
[out] 1.27
